B1: HDV Ribozyme (parent)
chain: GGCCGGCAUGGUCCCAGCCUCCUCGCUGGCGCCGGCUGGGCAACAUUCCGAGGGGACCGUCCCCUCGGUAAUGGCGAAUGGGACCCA

variants of: B1; assay: self-cleavage, relative activity (ratio to wild type); higher = more cleavage; co-transcriptional
readout_label: self-cleavage

seq | observed_measurement
GGCCGGCAUGGUCCCAGCCUCCUCGCCGGCGCCGGCAGGGCAACAUUCCGAGGGGACCGUCCCCUCGGUAAUGGCGAAUGGGACCCA [U27C U37A] | 0.0519
GGCCGGCAUGGUCCCAGCCUCCUCGCUGGCGCCGGAUGGGCAACAUUCCGAGGGGACCGUCCCCUCGGUAAUGGCGAAUGGGACCCA [C36A] | 0.147
GGCCGGCAUGGUCCCAGCCUCCUCGCUGGCACAGGCUGGGCAACAUUCCGAGGGGACCGUCCCCUCGGUAAUGGCGAAUGGGACCCA [G31A C33A] | 0.0744
GGCCGGCAUGGUCCCAGCCUCCUCGAUGGCUCCGGCUGGGCAACAUUCCGAGGGGACCGUCCCCUCGGUAAUGGCGAAUGGGACCCA [C26A G31U] | 0.425
GGCCGGCAUGGUCCCAGCCUCCUCGCUGGCGCCGGCUGGGCAACAUUCCGAGGGGACCGUCCUCUUGGUAAUGGCGAAUGGGACCCA [C63U C66U] | 0.816
GGCCGGCAUUGUCCCAGCCUCCUCGCUGGCGCCAGCUGGGCAACAUUCCGAGGGGACCGUCCCCUCGGUAAUGGCGAAUGGGACCCA [G10U G34A] | 0.259
GGCCCGCAUGGUCCCAGCCUCCUCGCUGGCGCCGGCUGGGCAACAUUCCGAGGGGACCGUCCCCUCGGGAAUGGCGAAUGGGACCCA [G5C U69G] | 0.111
GGCCGGCAUGGUCCCAGCCUCCUCGCUGGCGCCGGCUGGGCCAAAUUCCGAGGGGACCGUCCCCUCGGUAAUGGCGAAUGGGACCCA [A42C C44A] | 0.285
GGCCGGCAUGGUCCCAGCCUCCUCGCUGGGGCCGGCUGGGCAAGAUUCCGAGGGGACCGUCCCCUCGGUAAUGGCGAAUGGGACCCA [C30G C44G] | 0
GGCCGGCAUGGUCCCAGCCUCCUCGCUGGCGCCGGCUGGGCAACAUUCCGAGGGGACCAUCCCCUCGGUAAUGGAGAAUGGGACCCA [G59A C75A] | 0.163
GGCCGGCAUGGUCCCAGCCUCCUCGCUGGCGCCGGCUGGGCGACAUUCCGAGGGGACCGUCCCCUCGGUAAUGGCGGAUGGGACCCA [A42G A77G] | 0.208
GGCCGGCAUGGUCCCAGCCUCCUCACUGGCGCCGGCUGGGCAACAUUCCGAGGGGACCGUCACCUCGGUAAUGGCGAAUGGGACCCA [G25A C62A] | 0.168
GGCCGGCAUGGUCCCAGCCUCCUCGCUGGGGCCGGCUGGGCAACAUUCCGAGGGGACCGUCCCCUCGGAAAUGGCGAAUGGGACCCA [C30G U69A] | 0.148
GGCCUGCAUGCUCCCAGCCUCCUCGCUGGCGCCGGCUGGGCAACAUUCCGAGGGGACCGUCCCCUCGGUAAUGGCGAAUGGGACCCA [G5U G11C] | 0
GGCCGGCAUGGUCCCAGCCUCCUCGCUGGCGCCGGCUGGGAAACAUUCCGAGGGGACCGUCCCCUCGGUAAUGGCGAAUGGGACCCC [C41A A87C] | 1
GGCCGGCAUGGUCCCAGCCUCCUCGCUGGCGCCGGCUGGGCAACAUUCCGCGGGGACCGUCCCCACGGUAAUGGCGAAUGGGACCCA [A51C U65A] | 1.04
GGCCGGCAUGGUCCCAGCCUCCUCGCUGGCGCCGGCUGGGCAACAUUCCGAGGGGACCGGCCGCUCGGUAAUGGCGAAUGGGACCCA [U60G C63G] | 0.293
GGCCGGCAUGGUCCCAGCCUCCUCGCUGGCGCCGGCUGGUCAACAUUCCGAGGGGACCGUCCCCUCGGUAAUGGCAAAUGGGACCCA [G40U G76A] | 0.789
GGCCGGCAUGGUCCCAGCCUCCUCGCUGGCGCCAGCUGGGCAACAUUCCGAGGGGACCGUCCCCUCUGUAAUGGCGAAUGGGACCCA [G34A G67U] | 0.0811
GGCCGGCAUGGUCCCAGCCUCCUCGCUGGCGCCAGCUGGGCGACAUUCCGAGGGGACCGUCCCCUCGGUAAUGGCGAAUGGGACCCA [G34A A42G] | 0.178
AGCCGGCAUGGUCCCAGCCUCCUCGCUGGCGCCGGCUGGGCAUCAUUCCGAGGGGACCGUCCCCUCGGUAAUGGCGAAUGGGACCCA [G1A A43U] | 0.0437
GGCCGGCAUGGUCCCAGCCUCCCCGCUGGCGCCGGCUGGGCAACAUUCCGAGGGGACCGUCCCCUCGGUAAUGGCGAAUGUGACCCA [U23C G81U] | 0.499
GGCCGGCAUGGUCCCAGCCUCCUCGCUGGCGCCGGCUGUGCAACAUUCCUAGGGGACCGUCCCCUCGGUAAUGGCGAAUGGGACCCA [G39U G50U] | 0.627
GGCCGGCAUGGUCCCAGCCCCCUCGCUGGCGCCGGCUGGGCAACAUUCGGAGGGGACCGUCCCCUCGGUAAUGGCGAAUGGGACCCA [U20C C49G] | 0.0852
GGCCGGCAUGGUCACAGCCUCCUCGCUGGCGCCGGCUGGGCAACAUUCCGAGGGGACCGUCCCCUCGGUAAGGGCGAAUGGGACCCA [C14A U72G] | 0.151
GGCCGGCAUGGUCCCAGCCUCCUCGCUGGCGCCGGCUGGGCAACAUUCCGACGGGACCGUCCCCUGGGUAAUGGCGAAUGGGACCCA [G52C C66G] | 0.672
GGCCGGAAUGGUCCCAGCCUCCUCGCUGGCGCCGGCUGGGGAACAUUCCGAGGGGACCGUCCCCUCGGUAAUGGCGAAUGGGACCCA [C7A C41G] | 0
GGCCGGCAUGGUCCCAGCAUCCUCGCUGGCGCCGGCUGGGCCACAUUCCGAGGGGACCGUCCCCUCGGUAAUGGCGAAUGGGACCCA [C19A A42C] | 0.026
GGCCGGCAUGGUCCCAGCCUCCUCGCUGGCGCAGGCUGGGCAACAUUCCGAGGGGACCGUCCCCUCGGUAAUUGCGAAUGGGACCCA [C33A G73U] | 0.233
GGCCGGCAUGGUCCCAGCCUCCUCGCUGGCGCCGGCUGGGCCACAUUCCGAGGGGACCUUCCCCUCGGUAAUGGCGAAUGGGACCCA [A42C G59U] | 0.424
GGCCGGCAUGGUCCCAGCCUCCUCGCUGGCGCCCGCUGGGCAACAUUCCGAGUGGACCGUCCCCUCGGUAAUGGCGAAUGGGACCCA [G34C G53U] | 0.163
GGCCGGCAUGGUCCCAGCCUCCUCGCUGGCCCCGGCUGGGCAACAUUCCGAGGGGACGGUCCCCUCGGUAAUGGCGAAUGGGACCCA [G31C C58G] | 0.289
GGCCGGCCUGGUCCCAGCCUCCUCGCUGGCGCCGGAUGGGCAACAUUCCGAGGGGACCGUCCCCUCGGUAAUGGCGAAUGGGACCCA [A8C C36A] | 0
GGCCGGCAUGGUCCCAGCCUCCUCGCUGGCGCCGGCUGGGCAACAUUCCGAGGGGACAGUCCCCUCGGAAAUGGCGAAUGGGACCCA [C58A U69A] | 1.07
GGCCGGCAUGGUCCCAGCCUCCUCUCUGGCGCCGGCUGGGCAACAUUCCGAGGGGACCGUCCCCUCGGUAAUGGCGAAUGGGUCCCA [G25U A83U] | 0.0791
GGCCGGCACGGUCCCAGCCUCCUCACUGGCGCCGGCUGGGCAACAUUCCGAGGGGACCGUCCCCUCGGUAAUGGCGAAUGGGACCCA [U9C G25A] | 0.277
